src = PubChem BioAssay (NCI)

Test system: UO-31 renal
assay.notes: NCI tumour cell line growth inhibition, 48 h
measured.quantity: TGI

molecule: COC(=O)C1CCC(=O)N1C(c1ccc2c(c1)OCO2)c1cc(OC)c(OC)c(OC)c1 (stereo not drawn)
measured.quantity: TGI
val: > 100 µM

Any idea what TGI came out for Fc1cccc(F)c1C(Nc1nncs1)Nc1nncs1 on UO-31 renal?
> 100 µM

Any idea what TGI came out for COC(=O)C(=O)Cc1nc2ccccc2o1 on UO-31 renal?
> 100 µM

* * *

System: DU-145 prostate
assay.notes: NCI tumour cell line growth inhibition, 48 h
measured.quantity: GI50

For orientation, consider the following solved cases.
entry.smiles: C[CH2][Hg][S]c1ccccc1C(=O)O
tested.system: DU-145 prostate
GI50: 1.83 µM
--
entry.smiles: C=CCc1cc(Nc2c3ccc(Cl)cc3nc3ccc(OC)cc23)cc(CN(CC)CC)c1O
tested.system: DU-145 prostate
GI50: 1.96 µM
--
entry.smiles: Fc1ccc(/C=N/n2c(-c3ccc(F)c(Cl)c3)n[nH]c2=S)cc1
tested.system: DU-145 prostate
GI50: 41.5 µM

Field request: GI50 | item: O=C(NNS(=O)(=O)c1ccc(Cl)cc1Cl)c1cccnc1Nc1ccc(Cl)cc1
41.8 µM

* * *

List of TGI values.
Test system: SK-MEL-5 melanoma
assay.notes: NCI tumour cell line growth inhibition, 48 h

For orientation, consider the following solved cases.
molecule: c1ccc(CC2COC(c3cccs3)=N2)cc1 (stereo not drawn)
TGI: > 100 µM
--
molecule: N#CNc1nc(N)c(-c2ccc(Cl)cc2)c(C(=O)Nc2nccs2)n1
TGI: > 100 µM

Now, please, on to the next molecule.
Any idea what TGI came out for COc1ccc(-c2[nH]c3ccccc3c2CCNS(=O)(=O)c2ccc(C)cc2)cc1 on SK-MEL-5 melanoma?
> 10 µM

* * *

System: SF-539 CNS
assay.notes: NCI tumour cell line growth inhibition, 48 h
List of TGI values.

compound: Cc1cc2c(c(C(N)=O)c1C)-c1cc(Cl)cc(Cl)c1C2=O
TGI: > 100 µM
--
compound: C1CSCCSCCCSCCSCCCSCCSCCCSCCSC1
TGI: > 100 µM
--
compound: FC(F)(F)c1cccc(-c2nn3ncccc3c2-c2ccnc(Nc3ccc4c(c3)OCCO4)n2)c1
TGI: > 25 µM

Field request: TGI | item: N#Cc1nc(C#N)n(S(=O)(=O)c2ccccc2)c1NS(=O)(=O)c1ccccc1
> 100 µM

Field request: TGI | item: Fc1cccc(F)c1C(Nc1nncs1)Nc1nncs1
> 100 µM

* * *

Test system: T-47D breast
assay.notes: NCI tumour cell line growth inhibition, 48 h
measured.quantity: GI50

compound: COc1cc2ncc3c(nc4sccn43)c2cc1OC
tested.system: T-47D breast
GI50: 29.2 µM

compound: O=C1C(OCCOc2ccccc2)=C(OCCOc2ccccc2)C(=O)c2ccccc21
tested.system: T-47D breast
GI50: > 100 µM

compound: CCN1C(=O)N(CC)C2C1NN=c1s/c(=C\c3ccc(F)cc3)c(=O)n12 (stereo not given)
tested.system: T-47D breast
GI50: 30.8 µM

Field request: GI50 | item: Cc1ccncc1C(N)=O
> 100 µM

Field request: GI50 | item: CC1C=CC(OC(=O)C(C)(O)CCC(O)(C(=O)OC2CC(O)C(C(C)C)CC2(C)O)C(C)C)(C(C)C)CC1 (stereo not given)
0.292 µM

* * *

Test system: SW-620 colon
assay.notes: NCI tumour cell line growth inhibition, 48 h
List of TGI values.

For orientation, consider the following solved cases.
entry.smiles: N[C@H](COCc1ccccc1)c1ccccc1
TGI: > 72.3 µM
//
entry.smiles: Cc1ccncc1C(N)=O
TGI: > 100 µM

Field request: TGI | item: O=C(O)CCNS(=O)(=O)c1ccc([N+](=O)[O-])cc1
> 100 µM

* * *

System: LOX IMVI melanoma
assay.notes: NCI tumour cell line growth inhibition, 48 h
measured.quantity: TGI

Field request: TGI | item: CC(C)(C)OC(=O)NCCCCC(N)NC(=O)c1ccccc1 (stereo unspecified)
> 100 µM

Field request: TGI | item: N#CNc1nc(N)c(-c2ccc(Cl)cc2)c(C(=O)Nc2nccs2)n1
> 100 µM

Field request: TGI | item: CCC(=O)Nc1ccc(N2C(=O)/C(=C/c3ccc(OC)cc3)N=C2c2ccccc2)cc1
13.2 µM

Field request: TGI | item: Oc1cc(-n2cccn2)c(O)cc1-n1cccn1
42.4 µM

Field request: TGI | item: c1cc(N2CCN(c3ccc(C4=NCCCN4)cc3)CC2)ccc1C1=NCCCN1
> 77.9 µM

Field request: TGI | item: COc1cc2ncc3c(nc4sccn43)c2cc1OC
> 100 µM

Field request: TGI | item: COc1ccc(Nc2ccc([N+](=O)[O-])cc2[N+](=O)[O-])cc1CN(CCCl)CCCl
3.51 µM

Field request: TGI | item: Cc1[nH]c(-c2cc(N)ccc2Cl)c2c1C(=O)CCCC2
7.39 µM

Field request: TGI | item: C=CCC1(C)CCCN(Cc2ccccc2)C1=O (stereo unspecified)
> 10 µM

Field request: TGI | item: COc1cc(CNc2nc3ccccc3nc2C(=O)O)cc(OC)c1OC
> 100 µM

Field request: TGI | item: CSc1c(C#N)c(N)n(-c2ccc(Cl)cc2)c(=O)c1C#N
> 100 µM

Field request: TGI | item: CCN(CC)C1Oc2cc3c(cc2C(c2cccc(OC)c2OC)C1C)OCO3 (stereo unspecified)
21.6 µM

Field request: TGI | item: Cc1cc(=O)c2c(O)cc3c(c2o1)CC=C(COC1OC(COC2OC(CO)C(O)C(O)C2O)C(O)C(O)C1O)CO3 (stereo unspecified)
> 100 µM

Field request: TGI | item: Cc1cc(NS(=O)(=O)c2ccc(NC(=O)c3cccc4c(Nc5ccc(S(N)(=O)=O)cc5)c5ccccc5nc34)cc2)no1
> 100 µM

Field request: TGI | item: CN1CCc2nc3sc(C(N)=O)c(N)c3c(-c3cccs3)c2C1
> 100 µM

Field request: TGI | item: CO/N=C1/c2sccc2[C@H](NC(=O)C(Cc2ccccc2)NC(=O)OC(C)(C)C)[C@@H]1O (stereo partly specified)
> 100 µM

* * *

Tested on: NCI-H226 lung
assay.notes: NCI tumour cell line growth inhibition, 48 h
measured.quantity: TGI

molecule: O=C(Nc1ccccc1OC(=O)c1ccccc1)c1ccccc1
tested.system: NCI-H226 lung
TGI: > 100 µM
--
molecule: c1ccc(N=C2c3ccsc3C(=Nc3ccccc3)c3ccsc32)cc1
tested.system: NCI-H226 lung
TGI: 11.4 µM
--
molecule: CC1(C)CC(=O)c2c(nc3c4c([nH]c(-c5ccc(Br)cc5)c24)CC(C)(C)C3)C1
tested.system: NCI-H226 lung
TGI: > 100 µM
--
molecule: O=C1NC2CCCCCC2C12CCCCC2 (centres undefined)
tested.system: NCI-H226 lung
TGI: > 100 µM
--
molecule: COc1ccc(CNc2cc(=O)n(C)c(=O)[nH]2)cc1
tested.system: NCI-H226 lung
TGI: > 100 µM
--
molecule: Cc1[nH]nc(-c2ccon2)c1N=O
tested.system: NCI-H226 lung
TGI: 28.6 µM
--
molecule: O=c1[nH]c2nc3ccccc3c(=O)n2/c1=C/c1ccco1
tested.system: NCI-H226 lung
TGI: > 100 µM
--
molecule: N#CC1(C#N)C(c2ccccc2)C=CC12OCCCO2 (centres undefined)
tested.system: NCI-H226 lung
TGI: > 100 µM
--
molecule: C=CCC1(C)CCCN(Cc2ccccc2)C1=O (centres undefined)
tested.system: NCI-H226 lung
TGI: > 10 µM
--
molecule: Nc1nc2c(C(=O)O)c3ccc([N+](=O)[O-])cc3c(=O)n2c2ccccc12
tested.system: NCI-H226 lung
TGI: 53.9 µM

Field request: TGI | item: O=C1c2ccccc2N2OC3(N4CCCC4)CCCCC3C12c1ccccc1 (centres undefined)
> 100 µM

Field request: TGI | item: CC1c2ccccc2CCN1c1ccc(CO)c(Cl)c1 (centres undefined)
0.228 µM

Field request: TGI | item: C[C@@H]1O[C@@H](O[C@@H]2[C@@H](O)[C@H](OCCc3ccc(O)c(O)c3)O[C@H](CO)[C@H]2OC(=O)/C=C/c2ccc(O)c(O)c2)[C@H](O)[C@H](OC2OC[C@](O)(CO)[C@H]2O)[C@H]1O (some centres undefined)
> 100 µM

Field request: TGI | item: COC(=O)C(Cc1c[nH]c2ccccc12)N=C1Nc2ccncc2S(=O)(=O)N1c1cccc(OC(C)C)c1 (centres undefined)
> 100 µM

* * *

Tested on: DU-145 prostate
assay.notes: NCI tumour cell line growth inhibition, 48 h
measured.quantity: TGI

compound: CCCn1c(=O)c(N2CCN(c3ccccc3)CC2)nc2sc3ccccc3c21
val: > 100 µM

Any idea what TGI came out for COc1cccc(/N=N/C(=NNC(=O)c2ccc(C)cc2)c2ccc(N(C)C)cc2)c1 on DU-145 prostate?
> 100 µM

Any idea what TGI came out for O=C(O)c1ccccc1NC(=S)c1ccccc1 on DU-145 prostate?
> 100 µM

Any idea what TGI came out for Nc1ccc(Nc2cc(=O)[nH]c(=O)[nH]2)cc1Cl on DU-145 prostate?
> 100 µM

Any idea what TGI came out for COc1ccc(Nc2ccnc(N3CCN(c4ccnc5cc(Cl)ccc45)CC3)n2)cc1 on DU-145 prostate?
> 30.5 µM
